System: PPARg:RXRa 30nM:10nM, anti-RXR (NR concentration 30 nM, RXRa partner concentration 10 nM)
Test: PBM binding z-score (relative to random genomic background probes); higher = stronger binding; sequences stand for … in GC…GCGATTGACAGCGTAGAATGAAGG
parameter: PBM binding z-score
A bare number is all that is needed in reply.

Sample records with PBM binding z-score:
[
  {
    "input.sequence": "ACTAGTTGGACAGCTGAGGTCACACACAATTCGG",
    "measured.result": 0.342
  },
  {
    "input.sequence": "ACTAGTTGGTCAGCTGAGGTCATACACAATTCGG",
    "measured.result": 0.448
  },
  {
    "input.sequence": "AGAATGAGGTTATACGTAGATCTGGGAAGAAAGT",
    "measured.result": 0.653
  },
  {
    "input.sequence": "CCTCGGAGGACAGAAGTTCAGAGCTGTCCGCTTT",
    "measured.result": -1.24
  },
  {
    "input.sequence": "TCTGCTAGGTCAGTTGGTCAGCTATCGAGCTGCC",
    "measured.result": 1.21
  },
  {
    "input.sequence": "ATCTCTAGATAACCAAGTTCAGTGAATGCCGAAC",
    "measured.result": 0.124
  },
  {
    "input.sequence": "CTACCAAGGTGAACAAGGTCGCTGATTACTATTC",
    "measured.result": -0.0103
  },
  {
    "input.sequence": "ATCGAAAGGTTGTGAGGTGAGTATACAGAAAGGC",
    "measured.result": 0.508
  },
  {
    "input.sequence": "TAGCCTAGGTCAGATCGGGCCAGGATACGCTATA",
    "measured.result": -0.241
  },
  {
    "input.sequence": "CCAGACAGGTGAAAGGTAACTCGGTCTGGTACGC",
    "measured.result": 4.56
  }
]

GET /values?readout=PBM binding z-score&item= GGAACGAGGGCTTTCGAGTTGATAGCATGGCGAT
-0.533

Could you do the same for TTGAGTAGGTTAGTCGGGGCATTCAGCCAACATA , please?
0.398

Next up: CGTCCACGGTCAAGGTCAGTGAAAGAGACTCGAA
-0.28

Check AGAATGTGGTTATACGTAGATCAGGGAAGAAAGT too.
0.568

What about ATCTCTAGCTAACAAGTTCAGTGAAAGAGAGGAC ?
0.335
